Data provenance is patent US10793568B2.

Give Emax for every item shown.
molecular target: ligand binding domain of human FXR (Homo sapiens (Human)); assay: FXR ligand binding assay (LanthaScreen TR-FRET, SRC2-2 peptide recruitment); details: extent of activation relative to GW4064; read-out: % Efficacy
Sequence (Q96RI1 262-486): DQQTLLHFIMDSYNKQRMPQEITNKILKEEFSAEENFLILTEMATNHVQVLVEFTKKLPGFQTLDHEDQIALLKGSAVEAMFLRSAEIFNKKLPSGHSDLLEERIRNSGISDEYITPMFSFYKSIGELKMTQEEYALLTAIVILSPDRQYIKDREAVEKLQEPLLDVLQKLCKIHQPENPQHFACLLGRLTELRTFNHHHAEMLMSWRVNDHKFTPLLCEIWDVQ
Numbers only, in %.

// below: answered compounds
Query: Requested read-out: Emax. Entry: O=C(CCc1ccc(N2C[C@@H]3C[C@H]2C[C@H]3OCc2c(-c3c(Cl)cccc3Cl)noc2C2CC2)c(F)c1)NS(=O)(=O)C1CC1
Response: 162

Query: Same read-out for O=C(O)c1cc(F)c2nc(N3C[C@H]4C[C@@H]3[C@H](OC(=O)c3c(-c5c(Cl)cccc5Cl)noc3C3CC3)C4)sc2c1 ?
Response: 13

Query: Same read-out for CC(CCS(=O)(=O)NC(=O)c1ccc(N2C[C@@H]3C[C@H]2C[C@H]3OCc2c(-c3c(Cl)cccc3Cl)noc2C2CC2)cc1)OC(=O)CCC(=O)O (stereo partly drawn) ?
Response: 146

Query: Same read-out for O=C(O)c1ccc(N2C[C@@H]3C[C@H]2C[C@H]3OCc2c(-c3c(Cl)cccc3Cl)noc2C2CC2)c(F)c1 ?
Response: 145

Query: Same read-out for O=C(NS(=O)(=O)C1CC1)c1cc(F)c2nc(N3C[C@@H]4C[C@H]3C[C@H]4OC(=O)c3c(-c4c(Cl)cccc4Cl)noc3C3CC3)sc2c1 ?
Response: 136

More entries:
Query: Requested read-out: Emax. Entry: O=C(NS(=O)(=O)CCO)c1ccc(N2C[C@@H]3C[C@H]2C[C@H]3OCc2c(-c3c(Cl)cccc3Cl)noc2C2CC2)cc1
Response: 148
